Assignment: determine reported shrunken log2 fold change for the given sequences.
Test system: Escherichia coli TOP10;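 further: peptides expressed intracellularly from a pBAD plasmid library in pooled LB shake-flask culture, induced with 0.3% L-arabinose, DNA abundance read by NGS, three biological replicates, DESeq2 with apeglm shrinkage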
Experiment: shrunken log2 fold change of peptide-encoding DNA abundance (4.5 h post-induction vs induction); higher = less antimicrobial activity (less host growth inhibition)
Details: time post-induction: 4.5 h; library: site-saturation at positions 5, 18, 19, 20

Data request: Looking for the measured shrunken log2 fold change of `RRIRKRPPRLPRPRPRPWHLPRP` , can you help?
Data returned: -0.596

Data request: Looking for the measured shrunken log2 fold change of `RRIRDRPPRLPRPRPRPHFAPRP` , can you help?
Data returned: -0.103

Data request: Looking for the measured shrunken log2 fold change of `RRIRYRPPRLPRPRPRPTFVPRP` , can you help?
Data returned: -0.0102

Data request: Looking for the measured shrunken log2 fold change of `RRIRQRPPRLPRPRPRPRCWPRP` , can you help?
Data returned: 0.257

Data request: Looking for the measured shrunken log2 fold change of `RRIRKRPPRLPRPRPRPQCFPRP` , can you help?
Data returned: -0.0263

Data request: Looking for the measured shrunken log2 fold change of `RRIRGRPPRLPRPRPRPHPTPRP` , can you help?
Data returned: 0.973

Data request: Looking for the measured shrunken log2 fold change of `RRIRMRPPRLPRPRPRPHYEPRP` , can you help?
Data returned: -0.0284

Data request: Looking for the measured shrunken log2 fold change of `RRIRFRPPRLPRPRPRPPQLPRP` , can you help?
Data returned: 0.274

Data request: Looking for the measured shrunken log2 fold change of `RRIRGRPPRLPRPRPRPKLKPRP` , can you help?
Data returned: 0.862

Data request: Looking for the measured shrunken log2 fold change of `RRIRFRPPRLPRPRPRPIYAPRP` , can you help?
Data returned: -0.143

Data request: Looking for the measured shrunken log2 fold change of `RRIRFRPPRLPRPRPRPSEAPRP` , can you help?
Data returned: -0.0845

Data request: Looking for the measured shrunken log2 fold change of `RRIRKRPPRLPRPRPRPVTQPRP` , can you help?
Data returned: 0.169

Data request: Looking for the measured shrunken log2 fold change of `RRIRNRPPRLPRPRPRPKPTPRP` , can you help?
Data returned: 0.133

Data request: Looking for the measured shrunken log2 fold change of `RRIRKRPPRLPRPRPRPDSYPRP` , can you help?
Data returned: -0.00206

Data request: Looking for the measured shrunken log2 fold change of `RRIRHRPPRLPRPRPRPQAWPRP` , can you help?
Data returned: 0.00326
